Target: T1, control peptide A2E-15/HLA-A*02:01 complex on T2 cells (member of the P19 mixture) (human)
T1 construct: Loaded on T2 cells as part of the mixture of 19 control peptides
Experiment: flow cytometry, phage on T2 cells
Method: Individual phage clones from enriched phage display panning pools against PSA146/HLA-A*02:01 complex were incubated in the coated plates. Binding of the phage clones was detected by HRP-conjugated anti-M13 antibodies and developed using HRP substrate. The absorbance was read at 450 nm. […] Then, unique antibody clones were identified through DNA sequencing of ELISA-positive clones. […]
MEASUREMENT KIND: binding result

binder="PSA146/HLA-A*02:01-specific scFv phage clone #9 (scFv, V domains shown) VH: QVQLVQSGAEVKKPGASVKVSCKASGYTFTSYGISWVRQAPGQGLEWMGWISAYNGNTNYAQKLQGRVTMTTDTSTSTAYMELRSLRSDDTAVYYCARSSQYYVWDSWGQGTLVTVSS VL: QSVVTQPPSVSGAPGQRVTISCTGSSSNFGAGYDVHWYQQLPGTAPKLLIYGNSNRPSGVPDRFSGSKSGTSASLAITGLQAEDEADYYCQSYDSSLSGWVFGGGTKLTVLG" assay_result="no binding"
binder="PSA146/HLA-A*02:01-specific scFv phage clone #15 (scFv, V domains shown) VH: QVQLVQSGAEVKKPGSSVKVSCKASGGTFSSYAISWVRQAPGQGLEWMGRIIPILGIANYAQKFQGRVTITADKSTSTAYMELSSLRSEDTAVYYCARVSQPVYGSSTYDIWGQGTLVTVSS VL: QAVLTQPPSASGTPGQRVTISCSGRSSNLGSNSVNWYQQVPGTAPKLLIFDNHQRPSGVPDRFSGSKSGTSASLAISGLRSEDETDYYCAAWDDSLNSVVFGGGTKLTVLG" assay_result="no binding"
binder="PSA146/HLA-A*02:01-specific scFv phage clone #14 (scFv, V domains shown) VH: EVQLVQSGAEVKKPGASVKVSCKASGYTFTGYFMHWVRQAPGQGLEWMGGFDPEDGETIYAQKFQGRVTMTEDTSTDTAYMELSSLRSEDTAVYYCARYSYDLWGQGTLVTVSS VL: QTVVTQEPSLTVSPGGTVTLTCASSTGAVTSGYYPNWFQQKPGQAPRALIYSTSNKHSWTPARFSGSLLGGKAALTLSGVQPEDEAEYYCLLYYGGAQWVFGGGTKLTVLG" assay_result="no binding"
